Item-by-item account of cell viability
Tested on: K562;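 further: after 48 h exposure read by CellTiter-Glo luminescence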
protocolDetails: cell viability relative to vehicle control; higher = less cytotoxic
measurementSetup: 10 µM; SRSF2 genotype: SRSF2 wt/wt
Quote the value and follow it with the unit of measurement.

-- ask Which cell viability value is on record for COc1cc(C(=O)N(CCCc2ccccc2)Cc2ccc(CC(=O)O)cc2)cc(OC)c1C ?
-- reply 99.5%

-- ask Using the record for COc1c(N2CCNC(C)C2)c(F)cc2c(=O)c(C(=O)O)cn(C3CC3)c12 (stereo unspecified) [Gatifloxacin] , report its cell viability.
-- reply 108%

-- ask # input molecule: O=C(/C=C/c1ccc(O)cc1)OC[C@H]1O[C@@H](Oc2c(-c3ccc(O)cc3)oc3cc(O)cc(O)c3c2=O)[C@H](O)[C@@H](O)[C@@H]1O [Tiliroside] ; wanted: its cell viability
-- reply 95.3%

-- ask Consider the molecule CC1(C)C=Cc2cc(-c3coc4cc(O)ccc4c3=O)ccc2O1 [Corylin] and give its measured cell viability.
-- reply 85.4%
